Recorded Papp, one value per entry.
experiment: Permeability of compound by PAMP assay; type: ADME; settings: not told; read-out: permeability
Just the number please, in ×10⁻⁶ cm/s, no unit attached.

Example entries and their recorded answers appear below.
SMILES_REPR	DATA_VALUE
C/C=C/C[C@@H](C)[C@@H](O)[C@H]1C(=O)N[C@@H](CC)C(=O)N(C)CC(=O)N[C@@H](CC(C)C)C(=O)N[C@@H](C(C)C)C(=O)N[C@@H](CC(C)C)C(=O)N[C@@H](C)C(=O)N[C@H](C)C(=O)N(C)[C@@H](CC(C)C)C(=O)N(C)[C@@H](CC(C)C)C(=O)N(C)[C@@H](C(C)C)C(=O)N1C	4.1
C/C=C/C[C@@H](C)[C@@H](O)[C@H]1C(=O)N[C@@H](C)C(=O)N(C)CC(=O)N(C)[C@@H](CC(C)C)C(=O)N[C@@H](C(C)C)C(=O)N(C)[C@@H](CC(C)C)C(=O)N[C@@H](C)C(=O)N[C@H](C)C(=O)N(C)[C@@H](CC(C)C)C(=O)N(C)[C@@H](CC(C)C)C(=O)N(C)[C@@H](C(C)C)C(=O)N1C	7.9

Summary for this compound, C/C=C/C[C@@H](C)[C@@H](O)[C@H]1C(=O)N[C@@H](CC)C(=O)N(C)CC(=O)N(C)[C@@H](CC(C)C)C(=O)N[C@@H](C(C)C)C(=O)N(C)[C@@H](CC(C)C)C(=O)N[C@@H](C)C(=O)N[C@H](C)C(=O)N(C)[C@@H](CC(C)C)C(=O)N(C)[C@@H](CC(C)C)C(=O)N[C@@H](C(C)C)C(=O)N1C : Papp is 0.42

Short answer for C/C=C/C[C@@H](C)[C@@H](O)[C@H]1C(=O)N[C@@H](CC)C(=O)N(C)CC(=O)N[C@@H](CC(C)C)C(=O)N[C@@H](C(C)C)C(=O)N(C)[C@@H](CC(C)C)C(=O)N[C@@H](C)C(=O)N[C@H](C)C(=O)N(C)[C@@H](CC(C)C)C(=O)N(C)[C@@H](CC(C)C)C(=O)N(C)[C@@H](C(C)C)C(=O)N1C : Papp was 2.5

// C/C=C/C[C@@H](C)[C@@H](OC(C)=O)[C@H]1C(=O)N[C@@H](CC)C(=O)N(C)CC(=O)N(C)[C@@H](CC(C)C)C(=O)N[C@@H](C(C)C)C(=O)N(C)[C@@H](CC(C)C)C(=O)N[C@@H](C)C(=O)N[C@H](C)C(=O)N(C)[C@@H](CC(C)C)C(=O)N(C)[C@@H](CC(C)C)C(=O)N(C)[C@@H](C(C)C)C(=O)N1C : Papp value = 3.3

Looking up C/C=C/C[C@@H](C)[C@@H](O)[C@H]1C(=O)N[C@@H]([C@@H](C)O)C(=O)N(C)CC(=O)N(C)[C@@H](CC(C)C)C(=O)N[C@@H](C(C)C)C(=O)N(C)[C@@H](CC(C)C)C(=O)N[C@@H](C)C(=O)N[C@H](C)C(=O)N(C)[C@@H](CC(C)C)C(=O)N(C)[C@@H](CC(C)C)C(=O)N(C)[C@@H](C(C)C)C(=O)N1C , I found its Papp recorded as 2.8

Notebook: C/C=C/C[C@@H](C)[C@@H](O)[C@H]1C(=O)N[C@@H](C(C)C)C(=O)N(C)CC(=O)N(C)[C@@H](CC(C)C)C(=O)N[C@@H](C(C)C)C(=O)N(C)[C@@H](CC(C)C)C(=O)N[C@@H](C)C(=O)N[C@H](C)C(=O)N(C)[C@@H](CC(C)C)C(=O)N(C)[C@@H](CC(C)C)C(=O)N(C)[C@@H](C(C)C)C(=O)N1C , Papp read as 4.4
